Experiment: Quantitative High-Throughput drug screen in 47 multiple myeloma cell lines against the NCATS MIPE library collection: VP6_DJ cell viability assay (AID 1919867); also: nearly all actives have a fitted effect of over 40% in size
Settings: ATP luminescence, 48 h; series mostly up to 45.8 µM
Inconclusive results are not listed. Calls of active or inactive are those of the source. Calls follow the shape of the dose curve; as a rule, active = well fitted cell-killing curve with a large enough effect; inconclusive = small, poorly fitted or top-dose-only effect, or effect the other way; inactive = no such curve, though single readings can be large or run the other way.
Classes used: T (active), F (inactive)

INSERT INTO results (compound, label_class) VALUES
  ('Clc1ccc(COC(Cn2ccnc2)c2ccc(Cl)cc2Cl)c(Cl)c1 (centres undefined)', 'T'),
  ('COc1ccc(-c2cc(=O)c3c(O)cc(O[C@@H]4O[C@H](CO[C@@H]5O[C@@H](C)[C@H](O)[C@@H](O)[C@@H]5O)[C@@H](O)[C@H](O)[C@@H]4O)cc3o2)cc1O', 'T'),
  ('C[C@]12CC[C@@H]3c4ccc(O)cc4CC[C@H]3[C@H]1[C@@H](O)[C@@H](O)[C@H]2O', 'F'),
  ('Cc1cnc(CNC(=O)c2c(=O)c3ccc(N4CCCN(C)CC4)nc3n3c2sc2ccccc23)cn1', 'F'),
  ('C=C1[C@H](n2cnc3c(=O)[nH]c(N)nc32)C[C@H](O)[C@H]1CO', 'T'),
  ('C[C@@]1(C(=O)Nc2ccc(F)nc2)CCCN1c1nc(Nc2cc(C3CC3)[nH]n2)c2cccn2n1', 'T'),
  ('CN1CCC(COc2cnc(-c3cccc(Cn4nc(-c5cccc(C#N)c5)ccc4=O)c3)nc2)CC1', 'T'),
  ('CN1CC(=O)NC1=NC(=O)Nc1cccc(Cl)c1', 'F'),
  ('CCC(C)SSc1ncc[nH]1 (centres undefined)', 'T');
